These entries and their values trace back to the supplement of paper PMC9170038.

Documented apparent KD of MS2 coat protein across a set of sequences
test system: MS2 coat protein; experiment: apparent KD of MS2 coat protein; higher = weaker reporter binding; settings: Eterna round: R107; input ligand: tryptophan 2.4 mM
Could you give me the number in µM? Just the number is fine.

Example results:
seq_text="GUUGCACAUGAGGAUCACCCAUGUUUGGAUACCAGUCUCUGUAAUGACCCUUGGCAGCCACCAUAGACGCUUGAGUAGAGCCUGA [theeternabot_sameState_MS2_Theo_A_21]" measured_parameter="apparent KD of MS2 coat protein" units_text=µM data_value=0.0155
seq_text="GACAGAAACUGAAGGAGCGAGGUAAAACGGGAUGAGCAAACAUGAGGAUCACCCAUGUGGCCUCAGGUAGGUCGCAGAAAGAAAC [Exclusion Arginine B GF24]" measured_parameter="apparent KD of MS2 coat protein" units_text=µM data_value=0.135
seq_text="GGUUGGUGUAGAGAUAUAUUGAUUACUGAAGGAGCGGGAAGAAACCCAGGUAGGUCGCAGAGAUCCACAUGAGGAUCACCCAUGU [!0.L]" measured_parameter="apparent KD of MS2 coat protein" units_text=µM data_value=0.0275

Prompt line: Which measured apparent KD of MS2 coat protein value corresponds to UUUUUUUUGGGAAGGAGCGGGAACAUGUGGAUCUCCCAUGUACAUGAGGAUCACCCAUGUACCCAGGUAGGUCGCCCAUUUUUUU [Exclusion - Arginine B] ?
Response line: 0.0662

Prompt line: Endpoint output: apparent KD of MS2 coat protein of AAAUAAAUCACAUGAGGAUCACCCAUGGAUACCAGGCCUGGAAACAGCCCUUGGCAGCCACAUGAGGAUCACCCAUGUGCUAAAU [MAT - Exclusion Theophlline A - Mod of Eli - D2] . Value?
Response line: 0.14

Prompt line: // query apparent KD of MS2 coat protein value for entry UUUUUUUUGGGAAGGAGCGGGAACAUGUGGAUCUCCCAUGUACAUGAGGAUCACCCAUGUACCCAGGUAGGUCGCUCAUUUUUUU [Exclusion - Arginine B]
Response line: 0.026

Prompt line: Find the recorded apparent KD of MS2 coat protein belonging to ACGUAAAGCAGAAGGAGCGUCUUCAAAUUACAUGAGGAUCACCCAUGUUUUGUGAUCAUAUGACAGGUAGGUCGCUGAAGUACGA [JR_SSArginiB_Sub003] and report it.
Response line: 0.0665

Prompt line: Fill blank: measured apparent KD of MS2 coat protein of the sequence AGCAAGCAACAUGAGGAUCACCCAUGUGAAGGAGCGCCGAAUAAGGCAGGUAGGUCGCACAUGAAUAAAUCAUGUAAAAGCUUGC [MAT - Exclusion Arginine A - Mod of Eli - D23] is ____.
Response line: 0.138

###

tested on: MS2 coat protein; assay: apparent KD of MS2 coat protein; designed switch direction (-1 OFF switch, 1 ON switch): -1; higher = weaker reporter binding; settings: input ligand: none
apparent KD of MS2 coat protein: recorded values
Please state the figure in nM; there is no need to write the unit.

seq_text="UUAAAUCAUGUAGGAUAUGCGUGGCGAAGCUAUGCAGAAGGACAUGAGGAUCACCCAUGUUCUAGCGUCUGCGUACAGAUGCGG [JL JSci mod] (Eterna round: R96, puzzle: Exclusion NG 1)" target_desc="MS2 coat protein" data_value=29.8

Prompt line: Look up apparent KD of MS2 coat protein for this sequence: AAAUGACAUUAGGAUAUAUAACGCGGCUGCCGCAUAGAAGGGAUGACUUGAGGAUCACCCAAGUGACCCAAGGA [Arcere] (Eterna round: R97, puzzle: Exclusion 6)
Response line: 30.8

Prompt line: State the recorded apparent KD of MS2 coat protein for this entry: GAAUAGAGAGGAUAUGCAAUGAAGGUAGUACGAUAUAUCUGACAUGAGGAUCACCCAUGUAGAAGGCUCAGAUC [EX2 #8] (Eterna round: R97, puzzle: Exclusion 2)
Response line: 29.3

###

system: MS2 coat protein; assay: apparent KD of MS2 coat protein; designed switch direction (-1 OFF switch, 1 ON switch): -1; higher = weaker reporter binding; details: input ligand: none
Cut-off 0.1 µM on apparent KD of MS2 coat protein, inclusive. At or above means 1; below means -1.

seq_text="UAAACAAGCUAAAGAUCCUACAUGAGGAUCACCCAUGUGCUCGUCUUGUAACGUACUGUGACGAAAGUCACGGUACG [JL TOV1 3.10] (Eterna round: R97, puzzle: Sensor, turn-off variant 1)" target_desc="MS2 coat protein" assigned_category=1
seq_text="CGAUGAGGAGUGAGGAUAUCGUGUUCGAAAGAACGUGAGAAGGCACAUGAGGAUCACCCAUGUGAUUCUUGUCG [Omei Ex4B A18] (Eterna round: R97, puzzle: Brourd's mod of Exclusion 4)" target_desc="MS2 coat protein" assigned_category=-1
seq_text="GGCCGUUUUCGGCCCGGGCGGGCCACAUGAGGAUCACCCAUGUAGGAUAUCGCCGGGUUUCCCGGCGAGAAGGGCAGGGCCCGC [first try] (Eterna round: R96, puzzle: Exclusion NG 3)" target_desc="MS2 coat protein" assigned_category=-1
seq_text="CGACAGGGAGGAUAUACAUGAGGAUCACCCAUGUUCAAGCGUCCUUGAACUACCUCUGGUAGAAGGCCCUAAAG [jl-ex3-4.67 ViennaUCT mod] (Eterna round: R97, puzzle: Exclusion 3)" target_desc="MS2 coat protein" assigned_category=1

Next:
Prompt line: Dear colleague, could you confirm whether UAAUUUUUAGUAAGGAUAUCGGUCCCAAGGGACAACGAGAAGGUACAUGAGGAUCACCCAUGUGAUAAAAGAAU [Mod of Zala 5 - Jieux - Brourd's Mod of Exclusion 4] (Eterna round: R97, puzzle: Brourd's mod of Exclusion 4) has apparent KD of MS2 coat protein at or above 0.1 µM?
Response line: -1

###

Recorded apparent KD of MS2 coat protein, one value per entry.
system: MS2 coat protein; assay: apparent KD of MS2 coat protein; designed switch direction (-1 OFF switch, 1 ON switch): 1; higher = weaker reporter binding; details: input ligand: FMN 200 uM
Answer as a quantity: numeral, then unit.

seq_text="CUUGCCCAGUCAGGAUAUGGGAAAGGAAGUGUACCAGAAGGGACAAGAAAGGACAUGAGGAUCACCCAUGUCGGGCAGGCGAGA [PowerStrip SSNG 1.23] (Eterna round: R96, puzzle: Same State NG 1)" data_value="32.8 nM"

Prompt line: Can you share its apparent KD of MS2 coat protein? I mean this sequence: CCGUAAUAUGGAGGAUAUGGAGCCUUAUUGGCUCCAGAAGGUCAUAACACAUGAGGAUCACCCAUGUCGGCGGUCAAUAGACCG [Eli NG1ss - 76] (Eterna round: R96, puzzle: Same State NG 1)
Response line: 19.4 nM

Prompt line: I am curious: what apparent KD of MS2 coat protein value has been reported for UUGCAGUGCGGGUAGGAUAUGUAGGGUGGUACAUGAGGAUCACCCAUGUAUCCACCCUUCGACCGGCAGAAGGGCCUGUCACCGC [Lexeis] (Eterna round: R96, puzzle: Same State 2) ?
Response line: 23.1 nM

Prompt line: What value of measured apparent KD of MS2 coat protein is listed for UUCAAUGGGAUAGGAUAUCCUGCGGCGAGGCGUGGAGAAGGGUCAAGUACAUGAGGAUCACCCAUGUUUCGGAAAUAUUCCGAG [Eternabot solution 29] (Eterna round: R96, puzzle: Same State NG 1) ?
Response line: 121 nM

Prompt line: I am curious: what apparent KD of MS2 coat protein value has been reported for CCGAUGAUAGGACAGGAUAUGACUGUCGUCACAUGAGGAUCACCCAUGUCCCGGCAAUGCCACCGUUAGAAGGGUCCCAUCUCGG [Uslainarin] (Eterna round: R96, puzzle: Same State 2) ?
Response line: 18.2 nM

Prompt line: What measured apparent KD of MS2 coat protein goes with GCCGCGUUUCGCGCCUACAUGAGGAUCACCCAUGUUUGUAGGCAGGAUAUCGCUUGCUUUGCGGGCGAGAAGGGCUGUUGUGGC [salish99_SSNG3_R04_018] (Eterna round: R96, puzzle: Same State NG 3) ?
Response line: 36.8 nM

Prompt line: Form field: reported apparent KD of MS2 coat protein of AUUAUUAAUGCAGGAUAUGAUUAACAUGAGGAUCACCCAUGUGGUGUUGUGAGUAAGGAGAGUGAUCAGAAGGGCAUUUUUUUC [JMF's solution 20] (Eterna round: R96, puzzle: Same State NG 2)
Response line: 672 nM

###

test system: MS2 coat protein; test: apparent KD of MS2 coat protein; higher = weaker reporter binding; conditions: Eterna round: R107; input ligand: none
measured.parameter: apparent KD of MS2 coat protein (nM)
Respond numerically; units are nM and should not be typed.

seq_text="AAAUAAACAUCGGCCGCCACUUACUCAUGAGGUAACAACAUGAGGAUCACCCAUGUUUGAGGAUCAAGGACCGGGAUGUAAUAAA [AstrosSSTryB#1]" data_value=27.3
seq_text="GAGUUGUGCUCAGGCCCGACUCGCUGAGAAGGAGCGCACUAAGGUGCAGGUAGGUCGCUCAGGAAUACAUGAGGAUCACCCAUGU [Erlaatti]" data_value=22.9
seq_text=UGUAUGUGAUCUGAUACCAGACGUGUAAACCUGAGGAUCACCCUGGUAAGGCGAAAGCCAGUCCCUUGGCAGCAGAUCGCAUACU data_value=49
seq_text="AGAGAUGAACAUGAGGAUCACCCAUGUAAACGAGGACCGGUACGGCCGCCACUCGUGGGUGUAAUAGAAUAAUAAGAGAAUAAUA [Turkey 1]" data_value=63.2
seq_text="AGAGUUAGACAAAAGUCUAGCUCACCAGAAGGAGCGUCCGAAAGGACAGGUAGGUCGCUGGUGCACGAGGAUCACCCGUGUUCCU [ArgAS 21 #OpenEnded #AlternativeMS2]" data_value=80.6
seq_text="UUUUUUUUGGGAAGGAGCGGGAACAUGUGGAUCUCCCAUGUACAUGAGGAUCACCCAUGUACCCAGGUAGGUCGCCCAUUUUUUU [Exclusion - Arginine B]" data_value=102
seq_text="CACAUGAGGAUCACCCAUGUCUGAACUGAAGGAGCGCUAAAUAAGGCAGGUAGGUCGCGGAAUCCUGUGUGCAUAUGCACACGGG [9.X]" data_value=22.6
seq_text="AGUCUUAAAGGAAGGAGCGCAGUCAUAACAUGAGGAUCACCCAUGUCGAGGUGAGGGUCAUUGCAGGUAGGUCGCCUUACUAAGA [Same State - Arginine B (Freestyle 6)]" data_value=114

Could you now consider this next sequence?
Prompt line: Which apparent KD of MS2 coat protein is listed for UACCGAUACGGAAGGAGCGUAGAAGUAGUACAUGAGGAUCACCCAUGUAUGGGUAAUUUCGUACAGGUAGGUCGCCGUAUCGGUA [SSAB NP+V+V2 #23] ?
Response line: 31.8
